System: C33a cells
assay_summary: Cell viability (Cell Titer Glo), C33a
Type: cell-based
conditions_used: C33a cells, 48 hrs, Cell Titer Glo
quantity_kind: IC50 (µM)
Write the value in µM as a bare number.

I have this compound here, N.N.[Cl][Pt][Cl] [cisplatin, reference compound] , and I need its recorded IC50.
24

Request the reported IC50 associated with Cc1cccc(/C=C/c2ccc3cccc(O)c3n2)c1O [compound 3]
3.8

Sample COc1ccc(/C=C/c2ccc3cccc(O)c3n2)cc1OC [compound 4] — what was its IC50?
2.3

* * *

test_system: UniProt P04637
Sequence (P04637 whole entry): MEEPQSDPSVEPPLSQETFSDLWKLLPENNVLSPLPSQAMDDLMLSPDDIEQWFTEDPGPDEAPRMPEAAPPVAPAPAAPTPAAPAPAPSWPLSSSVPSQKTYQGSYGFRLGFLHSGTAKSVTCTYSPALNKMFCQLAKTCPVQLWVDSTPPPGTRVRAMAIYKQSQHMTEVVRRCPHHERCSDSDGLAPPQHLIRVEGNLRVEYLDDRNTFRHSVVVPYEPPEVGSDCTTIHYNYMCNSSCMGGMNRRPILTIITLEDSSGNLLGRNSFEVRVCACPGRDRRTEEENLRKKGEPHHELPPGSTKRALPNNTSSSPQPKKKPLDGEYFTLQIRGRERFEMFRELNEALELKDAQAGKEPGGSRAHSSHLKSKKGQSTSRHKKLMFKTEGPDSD
assay_summary: Surface plasmon resonance (Biacore) binding to p53
conditions_used: SPR, recombinant p53 amine linked to Biacore chip, compound 1 to 25 μM
From the text: Free reactive amines were then blocked with ethanolamine.
quantity_kind: pKd
Units for pKd: none; it is -log10 of a concentration expressed in mol/L.

Give its pKd value. Item: COc1ccc(/C=C/c2ccc3cccc(O)c3n2)cc1OC
6.70

* * *

test_system: UniProt:P03126
Sequence (P03126 whole entry): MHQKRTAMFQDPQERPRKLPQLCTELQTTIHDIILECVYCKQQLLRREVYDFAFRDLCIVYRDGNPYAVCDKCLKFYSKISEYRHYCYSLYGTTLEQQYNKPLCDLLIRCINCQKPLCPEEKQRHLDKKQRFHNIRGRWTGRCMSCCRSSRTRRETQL
conditions_used: read-out: KD for E6; SPR, recombinant E6
quantity_kind: Kd (µM)
Lab book: enter the figure in µM, no units written.

Would you kindly share the measured Kd for COc1ccc(/C=C/c2ccc3cccc(O)c3n2)cc1OC ?
3.2
